# System: K. pneumoniae ATCC 13883
# test: Minimum inhibitory concentration (MIC), broth dilution
# Assay type: cell-based
# measurement_setup: K. pneumoniae ATCC 13883; MH II broth, 5 × 10^5 CFU/mL, 18–24 h, 37 °C, OD600; triplicate, highest number reported; detection limit <0.5 and >128 µM
No end group written: not given here.
quantity: MIC, K. pneumoniae (µM)
Give bare numbers, in µM.

Example cases with answers are listed next.
# substance, quantity, recorded_measurement
measured = [
    ("RRRRFVLRLILRLL-NH2 [2i-N12]", "MIC, K. pneumoniae", 64),
    ("KKKKKKFVLKLILKLL-NH2 [2g-N12]", "MIC, K. pneumoniae", 64),
]

For VKKKKKAVLQLILKFLRRRR-NH2 [3b-N10] , write its MIC, K. pneumoniae.
16

###

Consider the following substances; for each one, report its MIC, P. aeruginosa.
# Test system: P. aeruginosa
# test: Minimum inhibitory concentration (MIC), broth dilution
# Type: cell-based
# measurement_setup: MH II broth, 5 × 10^5 CFU/mL, 18–24 h, 37 °C, OD600; triplicate, highest number reported; detection limit <0.5 and >128 µM
No end group written: not given here.
Give bare numbers, in µM.

Below, 2 substances whose answers are already recorded.
# substance, target_desc, u, MIC, P. aeruginosa
records = [
    ("VKKKKKAVLQLILKFLRRRR-NH2 [3b-N10]", "P. aeruginosa", "µM", 4),
    ("KKKKKKFVLKLILKLL-NH2 [2g-N12]", "P. aeruginosa", "µM", 128),
]

Quick one: give measured MIC, P. aeruginosa for RRRRFVLRLILRLL-NH2 [2i-N12]
64
